# PROTOCOL: qHTS Screen of the MIPE 4.0 Collection Against Ewings Sarcoma (TC32) (AID 1259256); note: nearly all actives have a fitted effect of over 45% in size
# CONDITION_NOTES: TC32 Ewing sarcoma viability, CellTiter-Glo, 48 h; series mostly up to 45.8 µM
Inconclusive results are not listed. The source made the active and inactive calls. Calls come from the whole dose curve; as a rule, active = well fitted inhibition curve with a large enough effect; inconclusive = small, poorly fitted or top-dose-only effect; inactive = no such curve, though single readings can be large or run the other way.
Form entry, call: pick from true = active, false = inactive

Consider the following illustrative entries.
molecule="O=C(OC1C[C@H]2CC[C@@H](C1)[N+]21CCCC1)C(O)(c1ccccc1)c1ccccc1 (stereo partly drawn)" answer_label=false
molecule="COc1ccc(C2(C#N)CCC(C(=O)O)CC2)cc1OC1CCCC1 (stereo not drawn)" answer_label=false
molecule=O=C1c2ccccc2-c2n[nH]c3cccc1c23 answer_label=true
molecule="CC(C)[N+]1(C)[C@@H]2CC[C@H]1CC(OC(=O)C(CO)c1ccccc1)C2 (stereo partly drawn)" answer_label=false
molecule=NS(=O)(=O)c1cc(C(=O)O)c(NCc2ccco2)cc1Cl answer_label=false

What call does the record list for COC(=O)N[C@H](C(=O)N[C@@H](Cc1ccccc1)[C@@H](O)CN(Cc1ccc(-c2ccccn2)cc1)NC(=O)[C@@H](NC(=O)OC)C(C)(C)C)C(C)(C)C ?
false

What call does the record list for O=P(O)(O)C(O)(Cn1ccnc1)P(=O)(O)O ?
false

What call does the record list for CC1(C)NC(=O)N(c2ccc([N+](=O)[O-])c(C(F)(F)F)c2)C1=O ?
false

What call does the record list for Nc1cccc2c1CN(C1CCC(=O)NC1=O)C2=O (stereo not drawn) ?
false

What call does the record list for N[C@@H](Cc1cc(I)c(Oc2cc(I)c(O)c(I)c2)c(I)c1)C(=O)O ?
true

What call does the record list for CCCCc1ccc2nc(NC(=O)OC)[nH]c2c1 ?
false

What call does the record list for CNC[C@H](O)c1ccc(O)c(O)c1 ?
true

What call does the record list for c1cnc2cc3c(cc2n1)C1CNCC3C1 ?
false

What call does the record list for CCOc1cc(CC(=O)N[C@@H](CC(C)C)c2ccccc2N2CCCCC2)ccc1C(=O)O ?
false

What call does the record list for Oc1ccc2ccccc2c1SSc1c(O)ccc2ccccc12 ?
true

* * *

# PROTOCOL: Nrf2 qHTS screen for inhibitors: Validation (AID 493153)
# CONDITION_NOTES: A549 ARE-Fluc reporter, 18-24 h; measured here: cytotoxicity max response
Results filed as inconclusive are left out.
PARAMETER: viability change (%)
Note: unit % is implicit; provide only the numeric part.

For orientation, consider the following solved cases.
molecule=CNC[C@H](O)c1ccc(O)c(O)c1 data_value=3.45
molecule=NC(=NCc1ccccc1)NC(=O)c1nc(Cl)c(N)nc1N data_value=2.7
molecule="COc1cc2nc(N3CCN(C(=O)C4CCCO4)CC3)nc(N)c2cc1OC (stereo not drawn)" data_value=-1.63
molecule=Oc1ccc2ccccc2c1SSc1c(O)ccc2ccccc12 data_value=7.1
molecule=O=c1cc(N2CCOCC2)oc2c(-c3ccccc3)cccc12 data_value=-18.1
molecule=O=c1c(O)c(-c2ccc(O)cc2O)oc2cc(O)cc(O)c12 data_value=-13.4
molecule="COc1cc2c(cc1OC)C1CC(=O)C(CC(C)C)CN1CC2 (stereo not drawn)" data_value=-5.87

Now take the following molecule into account.
Quick one: viability change of Cc1cccc(C#Cc2ccccc2)n1 ?
2

* * *

# Tested on: Zika virus NS2B-NS3 protease (linked construct)
# PROTOCOL: 384 well plate NINDS Rhodamine confirmatory qHTS for Zika virus inhibitors (AID 1347164);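 note: fluorescence from protease cleavage of Ac-LKRR-rhodamine 110 substrate; nearly all actives have a fitted effect of over 65% in size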
# CONDITION_NOTES: rhodamine-110 peptide substrate fluorescence; series mostly up to 2 mM
Records with an inconclusive call do not appear. Calls of active or inactive are those of the source. Calls follow the shape of the dose curve; as a rule, active = well fitted inhibition curve with a large enough effect; inconclusive = small, poorly fitted or top-dose-only effect; inactive = no such curve, though single readings can be large or run the other way.
Form entry, call: pick from Y for active, N for inactive

query_smiles=CC(C)c1ccc2c(c1)c(SC(C)(C)C)c(CC(C)(C)C(=O)O)n2Cc1ccc(Cl)cc1 answer_label=Y

What call does the record list for C=C(c1ccc(C(=O)O)cc1)c1cc2c(cc1C)C(C)(C)CCC2(C)C ?
Y

What call does the record list for COc1c2occc2cc2ccc(=O)oc12 ?
N

What call does the record list for N[C@@H](Cc1cc(I)c(Oc2cc(I)c(O)c(I)c2)c(I)c1)C(=O)O ?
Y

What call does the record list for O=c1c(O)c(-c2ccc(O)cc2O)oc2cc(O)cc(O)c12 ?
Y

What call does the record list for CN(C)c1ccc(O)c2c1C[C@H]1C[C@H]3[C@H](N(C)C)C(=O)C(C(N)=O)=C(O)[C@@]3(O)C(=O)C1=C2O ?
Y

* * *

Below: a set of entries, each annotated with reported cell viability, % of control (lower = more cytotoxic).
# PROTOCOL: High-throughput drug toxicity screening in the BPDCN cell line Gen2.2 (AID 1224824);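 note: cells exposed to compounds for 48 h before reading; 100% = DMSO and 0% = bortezomib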
# CONDITION_NOTES: Gen2.2 BPDCN cells; at 45.8 µM (top of the series) unless noted
# Excerpt: Blastic plasmacytoid dendritic cell neoplasm (BPDCN) is a rare, aggressive and largely incurable hematologic malignancy originating from plasmacytoid dendritic cells (pDCs). Although an initial response to chemotherapy is common, BPDCN prognosis is extremely poor and most patients relapse with drug-resistant disease leading to a median overall survival of ~1 year after diagnosis. […]
Note: unit % is implicit; provide only the numeric part.

For orientation, consider the following solved cases.
compound=COC1=C(OC)C(=O)C(CCCCCCCCCCO)=C(C)C1=O unit_abbreviation=% data_value=145
compound=CC(C)c1ccc2oc3nc(N)c(C(=O)O)cc3c(=O)c2c1 unit_abbreviation=% data_value=98.6
compound=CC(C)(S)[C@@H](N)C(=O)O unit_abbreviation=% data_value=117
compound=CC(C)Oc1ccc2c(=O)c(-c3ccccc3)coc2c1 unit_abbreviation=% data_value=181

Quick one: cell viability, % of control (lower = more cytotoxic) of NCCCCNCCCN ?
3.46

Quick one: cell viability, % of control (lower = more cytotoxic) of CCOC(=O)C1=C(O)C(=O)N(Cc2ccccc2)C1 ?
81.5

Quick one: cell viability, % of control (lower = more cytotoxic) of Nc1ccc(S(N)(=O)=O)cc1 ?
169

Quick one: cell viability, % of control (lower = more cytotoxic) of C[C@H](Cc1ccc(O)c(O)c1)[C@@H](C)Cc1ccc(O)c(O)c1 ?
7.79

Quick one: cell viability, % of control (lower = more cytotoxic) of O=C1c2c(O)cc(O)cc2OC(c2ccc(O)c(O)c2)C1O (stereo unspecified) ?
155

Quick one: cell viability, % of control (lower = more cytotoxic) of O=C(O)c1cn(-c2ccc(F)cc2)c2cc(N3CCNCC3)c(F)cc2c1=O ?
47.7

Quick one: cell viability, % of control (lower = more cytotoxic) of Cc1cccc(C)c1OCC(=O)N[C@@H](Cc1ccccc1)[C@@H](O)C[C@H](Cc1ccccc1)NC(=O)[C@H](C(C)C)N1CCCNC1=O ?
28

* * *

# PROTOCOL: qHTS Assay for Lipid Storage Modulators (AID 1519)
# CONDITION_NOTES: Drosophila S3 cells, BODIPY lipid droplet/cell ratio, laser cytometry; measured here: cell count channel max response; cells loaded with oleic acid
Records with an inconclusive call do not appear.
PARAMETER: max response

compound=Cc1cc(=O)oc2cc(O)ccc12 data_value=-7.84%
compound=O=C1NC(=O)C(c2ccccc2[N+](=O)[O-])=C1Nc1ccc(O)c(Cl)c1 data_value=-38.3%

Now take the following compound into account.
Quick one: max response of c1ccc2[nH]c(-c3cscn3)nc2c1 ?
-11.6%

* * *

# System: CP252
# PROTOCOL: qHTS profiling for inhibitors of Plasmodium falciparum proliferation (AID 504749);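 note: 0% = DMSO vehicle and full inhibition = artemisinin control; nearly all actives have a fitted effect of over 60% in size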
# CONDITION_NOTES: P. falciparum in erythrocytes, SYBR Green DNA, 72 h; series mostly up to 28.7 µM
Records with an inconclusive call do not appear. Calls of active or inactive are those of the source. The call rests on the fitted dose curve; in most records, active means well fitted inhibition curve with a large enough effect; inconclusive means small, poorly fitted or top-dose-only effect; inactive means flat fitted curve, though single readings scatter.
Form entry, call: pick from TRUE = active, FALSE = inactive

molecule=Oc1ccc(OCc2ccccc2)cc1 answer_label=FALSE

Here is another molecule to look at.
What call does the record list for c1ccc2[nH]c(-c3cscn3)nc2c1 ?
FALSE

* * *

# Test system: OV90
# PROTOCOL: Primary qHTS to identify gynecologic anti-cancer compounds using libraries of approved drugs and bioactive compounds (AID 1345084); note: nearly all actives have a fitted effect of over 55% in size; note: potency is the fitted concentration of half-maximal effect
# CONDITION_NOTES: Gynecologic cancer cell panel viability, ATPlite luminescence, 48 h; series mostly up to 57.5 µM
Records with an inconclusive call do not appear. The source made the active and inactive calls. Calls come from the whole dose curve; as a rule, active = well fitted cell-killing curve with a large enough effect; inconclusive = small, poorly fitted or top-dose-only effect, or effect the other way; inactive = flat fitted curve, though single readings scatter. Non-standard residues stand in square brackets, D forms with d. Residues, ends and D or L forms follow the SMILES beside them. *: point of attachment. Sta = CC(C)C[C@H](N)[C@@H](O)CC(=O)O; Isovaleryl = CC(C)CC(=O)*
PARAMETER: Potency

For orientation, consider the following solved cases.
compound=CC(=O)NC[C@H]1CN(c2ccc(N3CCOCC3)c(F)c2)C(=O)O1 system_name=OV90 parameter=Potency data_value=inactive
compound="CCC(C)(Oc1ccc(C2(c3ccc(OC(C)(CC)C(=O)O)cc3)CCCCC2)cc1)C(=O)O (stereo not given)" system_name=OV90 parameter=Potency data_value=inactive
compound="CC1Cc2ccccc2N1NC(=O)c1ccc(Cl)c(S(N)(=O)=O)c1 (stereo not given)" system_name=OV90 parameter=Potency data_value=inactive
compound=CC(C)[C@H](N)C(=O)OCCOCn1cnc2c(=O)[nH]c(N)nc21 system_name=OV90 parameter=Potency data_value=inactive
compound=Nc1ccc(S(N)(=O)=O)cc1 system_name=OV90 parameter=Potency data_value=inactive

Quick one: Potency of CN(C)c1ccc2nc3ccc(=[N+](C)C)cc-3sc2c1 ?
12.6 µM (active)

Quick one: Potency of Clc1ccc(C(Cn2ccnc2)OCc2c(Cl)cccc2Cl)c(Cl)c1 (stereo not given) ?
inactive

Quick one: Potency of Cc1c(C(=O)NN2CCCCC2)nn(-c2ccc(Cl)cc2Cl)c1-c1ccc(Cl)cc1 ?
inactive

Quick one: Potency of CC(S)C(=O)NCC(=O)O (stereo not given) ?
inactive

Quick one: Potency of COc1ccccc1N1CCN(CCN(C(=O)C2CCCCC2)c2ccccn2)CC1 ?
inactive

Quick one: Potency of S=c1nc[nH]c2nc[nH]c12 ?
7.08 µM (active)

Quick one: Potency of CC[C@]1(O)C[C@H]2CN(CCc3c([nH]c4ccccc34)[C@@](C(=O)OC)(c3cc4c(cc3OC)N(C=O)[C@H]3[C@@](O)(C(=O)OC)[C@H](OC(C)=O)[C@]5(CC)C=CCN6CC[C@]43[C@@H]65)C2)C1 ?
1.78 µM (active)

Quick one: Potency of Cn1c(NCCN(CCO)CCCc2ccc([N+](=O)[O-])cc2)cc(=O)n(C)c1=O ?
inactive

Quick one: Potency of CN1C(C(=O)Nc2ccccn2)=C(O)c2sccc2S1(=O)=O ?
inactive

Quick one: Potency of CC(C)CC(=O)N[C@H](C(=O)N[C@H](C(=O)N[C@@H](CC(C)C)[C@@H](O)CC(=O)N[C@@H](C)C(=O)N[C@@H](CC(C)C)[C@@H](O)CC(=O)O)C(C)C)C(C)C (Isovaleryl-VV[Sta]A[Sta]-OH) ?
inactive

Quick one: Potency of CCc1nc(N)nc(N)c1-c1ccc(Cl)cc1 ?
7.94 µM (active)
